Test system: Escherichia coli (E. coli) strain CFT073 ATCC 700928
Type: cell-based
Conditions: E. coli CFT073 ATCC 700928; Mueller Hinton II cation adjusted Broth with 0.002% v/v Tween-80; 35° C. for 22 hours; lowest concentration that completely prevented bacterial growth
Experimental: In vitro antimicrobial activity of each compound was determined by measuring minimal inhibitor concentrations (MICs) using the broth micro-dilution technique as approved by the Clinical and Laboratory Standards Institute (CLSI) (Methods for Dilution Antimicrobial Susceptibility Tests for Bacteria that Grow Aerobically; Approved Standard—Eighth Edition. CLSI document M07-A8. Wayne, Pa.: Clinical and Laboratroy Standards; 2009). […]
*1 amine or outer side, *2 acyl side, *3 side chain or, on linkers, in order; H or OH if unused. Where a SMILES comes first, the peptide text is derived from it. [ ]: non-standard residue; d: D form. The star is where a group is joined. X2 = CCCCCC[C@@H](OC[C@@H](C)N[*:1])[C@@H](C)C(=O)[*:2]; NMeL = CN[C@@H](CC(C)C)C(=O)O; Chg = N[C@H](C(=O)O)C1CCCCC1; Dap = NC[C@H](N)C(=O)O; X24 = NC[C@H](F)C*; X3 = NC[C@@H](F)C*
quantityKind: MIC (µM)

compound	quantityKind	reportedResult
CCCCCCCCCC[C@H]1OC(=O)CNC(=O)[C@H](CO)NC(=O)[C@H](CO)NC(=O)[C@H]([C@@H](C)CC)NC(=O)[C@H](CC(C)C)N(C)C(=O)[C@@H]1C	MIC	19
CCCCCC[C@H]1OC[C@@H](C)NC(=O)[C@H](COC[C@H](F)CN)NC(=O)[C@H](CN)NC(=O)[C@H](C2CCCCC2)NC(=O)[C@H](CC(C)C)N(C)C(=O)[C@@H]1C [Example 154] (cyclo([Chg][Dap]S(X3)[X2][NMeL]))	MIC	12
C=CCCCC[C@H]1OC(=O)CNC(=O)[C@H]([C@H](C)O)NC(=O)[C@H](CN)NC(=O)[C@H](C2CCCCC2)NC(=O)[C@H](CC(C)C)N(C)C(=O)[C@@H]1C	MIC	5.2
CCCCCC[C@H]1OC[C@@H](C)NC(=O)[C@H](COC[C@@H](F)CN)NC(=O)[C@H](CN)NC(=O)[C@H](C2CCCCC2)NC(=O)[C@H](CC(C)C)N(C)C(=O)[C@@H]1C [Example 158] (cyclo([Chg][Dap]S(X24)[X2][NMeL]))	MIC	12
